These entries and their values trace back to PubChem BioAssay (NCI).

Assay: NCI Yeast Anticancer Drug Screen. Data for the mec2-1 strain (AID 157)
Conditions: S. cerevisiae mec2-1 strain, at 5.0 µM (retest, dose inferred, filed as 0.5)
Protocol: Growth inhibition of yeast strains with defined genetic alterations is measured as a screen for potential anti-cancer activity. Selected strains with alterations in DNA damage repair or cell cycle control were exposed to compounds and growth inhibition was measured relative to vehicle treated controls. The strain used in this assay is mec2-1
Compounds without any hit were thinned out: in the full panel of roughly 79,000, 15% have a hit. Activity calls are given as the source filed them. No stated cut-off is given here; in the data, active means growth inhibition above about 70%; inactive means the rest.
Labels: YES for active, NO for inactive

{"compound": "COC(=O)[C@H]1[C@@H](C(C)C)O[C@@H](C(C)C)O[C@H]1C(F)(F)F", "discrete-label": "NO"}
{"compound": "N#CCc1nc(Cl)cc(Cl)n1", "discrete-label": "NO"}
{"compound": "CCOC(=O)/C(=C/O)c1c[nH]c2ccccc12", "discrete-label": "NO"}
{"compound": "CN(C)C1CCC2C3CC=C4CC(OC=O)CCC4(C)C3CCC21C (centres undefined)", "discrete-label": "NO"}
{"compound": "Clc1ccc2c(Cl)c3c(nc2c1)CCCC3", "discrete-label": "NO"}
{"compound": "c1ccc(C2=NC(=c3ccc(=C4N=C(c5ccccc5)C(c5ccccc5)=N4)cc3)N=C2c2ccccc2)cc1", "discrete-label": "NO"}
{"compound": "O=C1CC(=Nc2ccc([N+](=O)[O-])cc2)NN1c1c(Cl)cc(Cl)cc1Cl", "discrete-label": "NO"}
{"compound": "N=C(N)c1ccc(Oc2ccc(Oc3ccc(C(=N)N)cc3)cc2)cc1", "discrete-label": "NO"}
{"compound": "CCCCN(CCCC)/N=C\\C1=C2NC(=O)/C(C)=C\\C=C/C(OC)C(OC(N)=O)/C(C)=C/C(C)C(O)C(OC)CC(C)CC(=C(OC)C1=O)C2=O (centres undefined)", "discrete-label": "NO"}
{"compound": "C/C(=N\\Oc1ncc([N+](=O)[O-])c(O/N=C(\\C)c2ccccc2)n1)c1ccccc1", "discrete-label": "NO"}
{"compound": "CCc1cccc(CC)c1NC(=O)CS", "discrete-label": "NO"}
{"compound": "O=C1C=CC(=O)c2c(O)c(N3CCN(CCOCCO)CC3)c(Br)c(O)c21", "discrete-label": "NO"}
{"compound": "CN(C)c1ccc(/C=C/C(=O)c2ccc([N+](=O)[O-])cc2)cc1", "discrete-label": "NO"}
{"compound": "CNc1cc(SC)nc(N)n1", "discrete-label": "NO"}
{"compound": "CC(=O)OC1C(OC(C)=O)C2C(C)CC3OC(=O)C(C)C3CC2(C)C1OC(C)=O (centres undefined)", "discrete-label": "NO"}
{"compound": "Cc1ccc(O)c(Cc2cccc(Cl)c2)c1", "discrete-label": "NO"}
{"compound": "OCC1OC(NC(=S)NCSCCC(F)(F)C(F)(F)C(F)(F)C(F)(F)C(F)(F)C(F)(F)F)C(O)C(O)C1O (centres undefined)", "discrete-label": "NO"}
{"compound": "BrCc1ccccc1C[P+](c1ccccc1)(c1ccccc1)c1ccccc1", "discrete-label": "NO"}
{"compound": "C[C@]12C/C(=C/C(F)(F)F)C(=O)C[C@@H]1CC[C@@H]1[C@@H]2CC[C@]2(C)[C@@H](C(=O)O)CC[C@@H]12", "discrete-label": "YES"}
{"compound": "O=C(OCc1ccccc1)C(O)c1ccccc1 (centres undefined)", "discrete-label": "NO"}
{"compound": "CC(C)(C)OC(=O)NCCNC(=O)CN(CC(=O)O)C1CCCCC1N(CC(=O)O)CC(=O)O (centres undefined)", "discrete-label": "NO"}
{"compound": "O=C(CCBr)NC(=O)Oc1cccc2ccccc12", "discrete-label": "NO"}
{"compound": "CCCCOc1ccc(-c2c(COC(=O)NC)c(COC(=O)NC)c(C)n2C)cc1", "discrete-label": "NO"}
{"compound": "O=S1(=O)c2ccccc2C(Br)C1Br (centres undefined)", "discrete-label": "NO"}
{"compound": "CC(C)(C)c1ccc(-c2nnc(SCc3ccc(Cl)cc3)n2-c2cccc(C(F)(F)F)c2)cc1", "discrete-label": "NO"}
{"compound": "Cc1cc(C)nc(CCSS(=O)(=O)O)c1", "discrete-label": "NO"}
{"compound": "Brc1cccc[n+]1Cc1cc2ccccc2c2ccccc12", "discrete-label": "NO"}
{"compound": "COc1ccc(Cc2c3ccccc3cc[n+]2C)cc1Oc1ccc(Cc2c3ccccc3cc[n+]2C)cc1", "discrete-label": "NO"}
{"compound": "O=C(OC12CCCCC1CCCC2)c1ccc([N+](=O)[O-])cc1 (centres undefined)", "discrete-label": "NO"}
{"compound": "COC(=O)C1=C(C)NC(C)=C([N+](=O)[O-])C1c1cccc(N=O)c1 (centres undefined)", "discrete-label": "NO"}
{"compound": "CCCCCCCCCCNCCSSCCNC(C)=O", "discrete-label": "YES"}
{"compound": "OCC(O)C(O)C(/C=N/Nc1ccccc1)=N/Nc1ccccc1 (centres undefined)", "discrete-label": "NO"}
{"compound": "COC(=O)CSc1n[nH]c(-c2ccc(O)c([N+](=O)[O-])c2)n1", "discrete-label": "NO"}
{"compound": "COc1ccc(CN2CCCN(Cc3ccc(OC)cc3OC)C2c2cccc([N+](=O)[O-])c2O)c(OC)c1", "discrete-label": "NO"}
{"compound": "N#CSCC(=O)c1ccccc1", "discrete-label": "YES"}
{"compound": "O=C1/C(=C/c2ccccc2)CCC/C1=C\\c1ccc(O)c(CN2CCCCC2)c1", "discrete-label": "NO"}
{"compound": "Cc1cc(O)cc2c1c(=O)c1ccccc1n2C", "discrete-label": "NO"}
{"compound": "COc1cc2c(oc(=O)c3cc(C)cc(OC)c32)c2c(C3OC(C)C(O)C(C)(O)C3O)ccc(O)c12 (centres undefined)", "discrete-label": "YES"}
{"compound": "COc1ccc(C2c3cn[nH]c3CC3CCCCC32)cc1 (centres undefined)", "discrete-label": "NO"}
{"compound": "O=[N+]([O-])/C=C/c1ccco1", "discrete-label": "NO"}
{"compound": "O=[N+]([O-])C(/C=C(\\Cl)n1nnc2ccccc21)=C(/Cl)n1nnc2ccccc21", "discrete-label": "NO"}
{"compound": "COc1ccc(C)c2nc3ccccc3nc12", "discrete-label": "NO"}
{"compound": "O=S(=O)(CCCl)Cc1ccccc1", "discrete-label": "NO"}
{"compound": "O=C1c2cccc3cc([N+](=O)[O-])cc(c23)C(=O)N1O", "discrete-label": "NO"}
